target: T1, human plasma kallikrein (human, UniProt P03952 20-390; P03952 391-638); experiment: ELISA, biotinylated pKal signal over streptavidin background
T1 construct: also called pKal; Human pKal
T1 sequence (P03952 20-390, chain 1 of 2): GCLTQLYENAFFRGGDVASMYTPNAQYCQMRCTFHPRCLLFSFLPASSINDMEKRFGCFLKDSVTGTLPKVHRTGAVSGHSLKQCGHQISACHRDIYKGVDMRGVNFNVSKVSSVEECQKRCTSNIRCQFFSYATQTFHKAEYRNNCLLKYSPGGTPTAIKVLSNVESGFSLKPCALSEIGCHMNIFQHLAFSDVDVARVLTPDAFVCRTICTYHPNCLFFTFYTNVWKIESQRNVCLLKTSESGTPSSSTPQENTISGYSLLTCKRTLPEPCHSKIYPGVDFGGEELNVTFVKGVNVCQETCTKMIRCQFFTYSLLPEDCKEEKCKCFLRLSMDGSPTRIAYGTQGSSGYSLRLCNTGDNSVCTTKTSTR
T1 sequence (P03952 391-638, chain 2 of 2): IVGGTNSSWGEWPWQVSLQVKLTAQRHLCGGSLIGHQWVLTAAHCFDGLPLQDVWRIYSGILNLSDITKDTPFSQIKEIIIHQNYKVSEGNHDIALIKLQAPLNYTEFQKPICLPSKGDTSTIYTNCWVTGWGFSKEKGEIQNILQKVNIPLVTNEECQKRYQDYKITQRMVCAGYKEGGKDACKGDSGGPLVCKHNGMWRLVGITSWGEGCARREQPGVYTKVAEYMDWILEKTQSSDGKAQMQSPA
Item-by-item account of ELISA (T/B)
Assay Readout: ELISA (T/B)

[[record]]
binder = "M41-A11 (Fab, V domains shown, HC as printed runs into CH1) VH: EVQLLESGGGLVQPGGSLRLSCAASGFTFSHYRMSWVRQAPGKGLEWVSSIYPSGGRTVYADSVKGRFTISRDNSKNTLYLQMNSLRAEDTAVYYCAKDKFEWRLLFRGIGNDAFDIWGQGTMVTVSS VL: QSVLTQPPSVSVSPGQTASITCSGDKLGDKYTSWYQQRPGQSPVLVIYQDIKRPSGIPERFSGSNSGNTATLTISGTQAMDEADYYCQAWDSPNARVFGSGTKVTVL"
assay_readout = "ELISA (T/B)"
value = 28

[[record]]
binder = "M12-E06 (Fab, V domains shown, HC as printed runs into CH1) VH: EVQLLESGGGLVQPGGSLRLSCAASGFTFSQYKMLWVRQAPGKGLEWVSGIGPSGGLTAYADSVKGRFTISRDNSKNTLYLQMNSLRAEDTAVYYCARAPWFGELGMDVWGQGTTVTVSS VL: DIQMTQSPSSLSASVGDRVSITCRASQSISTYLNWYQHKPGKAPTLLIYGAFSLQSGVPSRFSGSGSGTDFALTISSLQPEDFATYYCQQSHSTPPTFGQGTRVEIK"
assay_readout = "ELISA (T/B)"
value = 48

[[record]]
binder = "M28-E11 (Fab, V domains shown, HC as printed runs into CH1) VH: EVQLLESGGGLVQPGGSLRLSCAASGFTFSLYDMTWVRQAPGKGLEWVSGISSSGGVTIYADSVKGRFTISRDNSKNTLYLQMNSLRAEDTAVYYCARTYYYDSSGYADAFDIWGQGTMVTVSS VL: DIQMTQSPSSVSASVGDRVTINCRASQDISNWLAWYQQKPGKAPNLLIYAASSLQTGAPSRFSGSGSGTDFTLTISSLQPEDFGTYVCQQSYSLPWTFGLGTKVEVR"
assay_readout = "ELISA (T/B)"
value = 29.3

[[record]]
binder = "M7-B04 (Fab, V domains shown, HC as printed runs into CH1) VH: EVQLLESGGGLVQPGGSLRLSCAASGFTFSWYSMVWVRQAPGKGLEWVSSISPSGGLTNYADSVKGRFTISRDNSKNTLYLQMNSLRAEDTAVYYCARHTAARPFYYYYMDVWGKGTTVTVSS VL: QSALTQPASVSGSPGQSITISCTGTNSDVGNYNLVSWYQQHPGEAPKLLIYEVNKRPSGVSNRFSGSKSGNTASLTISGLQAEDEADYLCCSYAGNRNFYVFGAGTKVTVL"
assay_readout = "ELISA (T/B)"
value = 4.1


Data credit: patent US20260184815A1
